These measurements were taken from paper PMC2788200.

Target: 10-formyltetrahydrofolate dehydrogenase (FDH) (Rattus norvegicus, UniProt P28037)
Sequence (P28037 1-902): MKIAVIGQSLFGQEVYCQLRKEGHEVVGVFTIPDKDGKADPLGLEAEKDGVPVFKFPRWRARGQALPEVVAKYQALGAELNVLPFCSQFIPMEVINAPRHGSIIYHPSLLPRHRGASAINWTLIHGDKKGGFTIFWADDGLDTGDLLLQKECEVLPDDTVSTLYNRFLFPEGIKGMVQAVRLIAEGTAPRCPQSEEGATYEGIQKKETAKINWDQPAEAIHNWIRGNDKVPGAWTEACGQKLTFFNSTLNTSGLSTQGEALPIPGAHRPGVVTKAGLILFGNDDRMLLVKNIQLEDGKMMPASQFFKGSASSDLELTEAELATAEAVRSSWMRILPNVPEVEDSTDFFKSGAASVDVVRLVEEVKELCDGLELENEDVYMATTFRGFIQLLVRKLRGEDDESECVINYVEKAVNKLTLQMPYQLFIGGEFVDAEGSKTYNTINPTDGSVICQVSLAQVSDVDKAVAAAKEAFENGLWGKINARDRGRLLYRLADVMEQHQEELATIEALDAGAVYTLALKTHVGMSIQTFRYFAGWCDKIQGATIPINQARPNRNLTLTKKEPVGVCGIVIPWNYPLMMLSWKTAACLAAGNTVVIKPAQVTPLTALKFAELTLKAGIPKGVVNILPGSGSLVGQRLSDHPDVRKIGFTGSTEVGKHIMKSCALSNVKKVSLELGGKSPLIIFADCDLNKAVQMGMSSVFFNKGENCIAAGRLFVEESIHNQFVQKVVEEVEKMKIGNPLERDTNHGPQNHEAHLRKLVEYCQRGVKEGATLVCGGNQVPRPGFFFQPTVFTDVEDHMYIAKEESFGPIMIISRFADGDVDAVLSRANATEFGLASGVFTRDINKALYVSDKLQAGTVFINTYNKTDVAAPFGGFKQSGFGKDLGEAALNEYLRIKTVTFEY
quantity_name: IC50 (mM)
Answers are plain numbers, in mM.

Reported IC50 for CC=O was 4
